# Target Under Test: SmBRD3(2) (Schistosoma mansoni)
# Sequence (A0A5K4ESD7 entry or part of it): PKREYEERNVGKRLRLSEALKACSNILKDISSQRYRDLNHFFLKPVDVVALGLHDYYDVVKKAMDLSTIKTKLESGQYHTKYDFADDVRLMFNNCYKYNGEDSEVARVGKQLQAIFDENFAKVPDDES
# Assay Notes: biochemical
# Assay type: binding
# Assay Setup: ITC; single run ± error of curve fit; Repeat 1; read-out: SmBRD3(2) Kd, Repeat 1
Measurement Name: pKd
Numbers only, as −log10 of the molar value.

Query (compound): `CC(=O)N1c2ccc(-c3ccc(C(=O)O)cc3)cc2[C@H](Nc2ccc3ccsc3c2)C[C@@H]1C` ; field requested: pKd
6.24

// switching to the query compound
Query (compound): `CC(=O)N1c2ccc(-c3ccc(C(=O)O)cc3)cc2[C@H](Nc2ccc3ncsc3c2)C[C@@H]1C` ; field requested: pKd
6.00

----------
# Assay Notes: CAD solubility assay
# Format: physicochemical
# Assay Setup: phosphate buffered saline, pH 7.4, phosphate buffered saline at pH 7.4; read-out: Aqueous Solubility by CAD
For each record, write down the corresponding solubility at 1 h.

Query (compound): `CC(=O)N1c2ccc(-c3ccc(C(=O)O)cc3)cc2[C@H](Nc2ccc3ncsc3c2)C[C@@H]1C` ; field requested: solubility at 1 h
≥ 260 µM

Query (compound): `CC(=O)N1c2ccc(-c3ccc(C(=O)O)cc3)cc2[C@H](Nc2ccc3ccsc3c2)C[C@@H]1C` ; field requested: solubility at 1 h
≥ 259 µM

More entries:
Query (compound): `CC(=O)N1c2ccc(-c3ccc(C(=O)O)cc3)cc2[C@@H](Nc2ccc3ccsc3c2)C[C@H]1C` ; field requested: solubility at 1 h
> 259 µM

Provenance of the data: paper PMC10726355
